Test: Tmax in mouse brain at 23 umol/kg, ip administered as bolus by LC-MS analysis
Type: ADME, organism-based

mol: CNC(=O)COc1ccc(-c2c(C#N)c(NC(=O)c3cccc(C[C@H](N)C(=O)O)c3)n3c(nc4ccccc43)c2C#N)cc1
Tmax (min): 30

* * *

Assay: Fraction unbound in mouse prostate at 23 umol/kg, ip administered as bolus by LC-MS analysis
Assay type: ADME, organism-based, Prostate gland

mol: CNC(=O)COc1ccc(-c2c(C#N)c(NC(=O)c3cccc(C[C@H](N)C(=O)O)c3)n3c(nc4ccccc43)c2C#N)cc1
fraction unbound: 0.0144

* * *

Assay: Tmax in mouse prostate at 23 umol/kg, ip administered as bolus by LC-MS analysis
Format: ADME, organism-based, Prostate gland
experimental_endpoint: Tmax (min)

mol: CNC(=O)COc1ccc(-c2c(C#N)c(NC(=O)c3cccc(C[C@H](N)C(=O)O)c3)n3c(nc4ccccc43)c2C#N)cc1
experimental_endpoint: Tmax
reported_value: 30

* * *

Assay: Fraction unbound in mouse plasma at 23 umol/kg, ip administered as bolus by LC-MS analysis
Assay type: ADME, organism-based

mol: CNC(=O)COc1ccc(-c2c(C#N)c(NC(=O)c3cccc(C[C@H](N)C(=O)O)c3)n3c(nc4ccccc43)c2C#N)cc1
fraction unbound: 0.0098

* * *

Target: Large neutral amino acids transporter small subunit 1 (Homo sapiens, UniProt Q01650)
Sequence (Q01650 whole entry): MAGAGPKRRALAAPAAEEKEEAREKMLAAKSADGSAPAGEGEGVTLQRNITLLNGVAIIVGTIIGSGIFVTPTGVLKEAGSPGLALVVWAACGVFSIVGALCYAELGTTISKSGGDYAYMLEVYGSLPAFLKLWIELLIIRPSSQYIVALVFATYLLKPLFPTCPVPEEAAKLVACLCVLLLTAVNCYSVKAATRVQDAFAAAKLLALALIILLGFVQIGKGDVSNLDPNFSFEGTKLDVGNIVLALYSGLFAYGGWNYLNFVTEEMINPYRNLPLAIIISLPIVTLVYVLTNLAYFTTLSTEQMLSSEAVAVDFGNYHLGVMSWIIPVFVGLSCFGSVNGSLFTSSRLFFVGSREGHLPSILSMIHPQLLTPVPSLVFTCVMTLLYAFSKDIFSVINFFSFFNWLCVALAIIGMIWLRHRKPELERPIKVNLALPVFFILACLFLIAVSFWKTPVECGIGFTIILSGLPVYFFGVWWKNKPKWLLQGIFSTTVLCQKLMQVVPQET
Assay: Drug uptake in human MCF7 cells assessed as LAT1 mediated drug transport per mg of protein at 100 uM measured 30 mins after cold wash by HPLC analysis
Assay type: ADME, cell-based
Settings: mcf7, 0.5 h

mol: CNC(=O)COc1ccc(-c2c(C#N)c(NC(=O)c3cccc(C[C@H](N)C(=O)O)c3)n3c(nc4ccccc43)c2C#N)cc1
tgt: Large neutral amino acids transporter small subunit 1 (Homo sapiens, UniProt Q01650)
display_unit: nmol/mg
Drug uptake: 2.63

* * *

Assay: Tmax in mouse kidney at 23 umol/kg, ip administered as bolus by LC-MS analysis
Assay type: ADME, organism-based

mol: CNC(=O)COc1ccc(-c2c(C#N)c(NC(=O)c3cccc(C[C@H](N)C(=O)O)c3)n3c(nc4ccccc43)c2C#N)cc1
Tmax, min: 10
